Source of measurements: patent EP0829477A1

Each item that follows carries a reported IC50.
test system: guinea pig oxyphiles; assay: Inhibition of activation of oxyphiles (PAF-induced release of active oxygen, luminol chemiluminescence); assay type: cell-based, Hartley guinea pigs; settings: Cavia porcellus, 5 min; PAF stimulation, chemiluminescence for 5 minutes; read-out: IC50 (x 10^-6 M)
READOUT_TYPE: IC50 (nM)

INSERT INTO assay_data (compound, readout_type, value_measured) VALUES
  ('O=c1c(-c2ccc(O)c(-c3cc(-c4coc5cc(O)cc(O)c5c4=O)ccc3O)c2)coc2cc(O)cc(O)c12 [NA23063C]', 'IC50', 320),
  ('O=c1c(-c2ccc(Oc3cc(-c4coc5cc(O)cc(O)c5c4=O)ccc3O)cc2)coc2cc(O)cc(O)c12 [NA23063A]', 'IC50', 100),
  ('O=c1c(-c2ccc(O)c(-c3cc(-c4coc5cc(O)cc(O)c5c4=O)ccc3O)c2)coc2cc(O)ccc12 [NA23063D]', 'IC50', 1100);
